- System: HEK-293T
- test.details: Multiplex assay against HEK293T
- Type: toxicity, cell-based
- condition.description: human, 48 h, 1 µM, compound concentration 1 uM, replicate 2
attribute.measured: Population Tubulin-Different-Phenotype (%)
Could you give me the number in %? Just the number is fine.

Record excerpt, results attached:
[
  {
    "molecule": "COc1ccccc1N1CCN(CCCCNC(=O)c2ccc3ccccc3c2)CC1.Cl",
    "assay.result": 22
  },
  {
    "molecule": "CN(C)CCCc1cc(C(=O)Nc2ccc(-c3ccncc3)cc2)ccc1O.Cl.Cl",
    "assay.result": 13
  },
  {
    "molecule": "CC1(COc2ccc3c(c2)ncn3-c2ccc3cccc(N4CCC(N)CC4)c3n2)COC1 [CRENOLANIB]",
    "assay.result": 14
  },
  {
    "molecule": "C[C@H](NC(=O)c1c(C(F)F)nn(C)c1Oc1cccc(C(F)(F)F)c1)c1ccc(C(=O)O)cc1 [PALUPIPRANT]",
    "assay.result": 9
  },
  {
    "molecule": "Cc1ccc(-c2ccc(F)cc2COc2ccc(CCC(=O)O)cc2)cc1",
    "assay.result": 9
  }
]

Ask: Hello, please tell me recorded Population Tubulin-Different-Phenotype (%) for this one: O=C(O)c1cc2ccccc2c(Cc2c(O)c(C(=O)O)cc3ccccc23)c1O [PAMOIC ACID]
Result: 11

Ask: Hello, please tell me recorded Population Tubulin-Different-Phenotype (%) for this one: Cc1ccc(/C(=C\CN2CCCC2)c2ccccn2)cc1 [TRIPROLIDINE]
Result: 6

Ask: Hello, please tell me recorded Population Tubulin-Different-Phenotype (%) for this one: `COc1c(C)cc(NC(=O)c2nn(Cc3ccc(F)cc3)c3c2CN(C(=O)c2ccc[nH]2)C[C@]3(C)C(N)=O)cc1C`
Result: 9

Ask: Hello, please tell me recorded Population Tubulin-Different-Phenotype (%) for this one: CCCC(CCC)C(=O)O [VALPROIC ACID]
Result: 10

Ask: Hello, please tell me recorded Population Tubulin-Different-Phenotype (%) for this one: CC(=O)NCCc1c(Cc2ccccc2)[nH]c2ccccc12 [LUZINDOLE]
Result: 13

Ask: Hello, please tell me recorded Population Tubulin-Different-Phenotype (%) for this one: `O=C(NCCO)c1cccc(-c2cc(Nc3ccc(OC(F)(F)F)cc3)ncn2)c1`
Result: 9

Ask: Hello, please tell me recorded Population Tubulin-Different-Phenotype (%) for this one: CN1CCN2c3ncccc3Cc3ccccc3C2C1 (configuration not stated) [MIRTAZAPINE]
Result: 9

###

- Test system: HEK-293T
- test.details: Multiplex assay against HEK293T
- Format: toxicity, cell-based
- condition.description: human, 12 h, 10 µM, compound concentration 10 uM, replicate 1
List of Population Normal (%) values.
Could you give me the number in %? Just the number is fine.

Record excerpt, results attached:
[
  {
    "molecule": "CC(=O)NCCc1c(Cc2ccccc2)[nH]c2ccccc12",
    "assay.result": 89
  },
  {
    "molecule": "CC1(COc2ccc3c(c2)ncn3-c2ccc3cccc(N4CCC(N)CC4)c3n2)COC1",
    "assay.result": 32
  }
]

Ask: Hello, please tell me recorded Population Normal (%) for this one: `CN(C)c1ccnc2sc3c(=O)n(N4CCCCCC4)cnc3c12`
Result: 89

All figures here come from ChEMBL document CHEMBL5058577.
